# Test system: G-401 tumor spheroids, viability % test/control
# Test Protocol: Anticancer human tumor G-401 cell line growth inhibition;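 also: spheroids exposed to compound for 7 days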
# Run Conditions: second compound 31.6 µM; first compound 10 µM; hits give low values; spheroids with HUVEC and MSC
Flag rule - viability, T/C less than 60% flags Y; the remaining entries get N.

Request: Does the reported viability, T/C of the following compound sit strictly below 60%? COc1cc(C)[nH]c(=O)c1CN1CCc2c(Cl)cc(C(OC)C3COC3)c(Cl)c2C1=O (stereo unspecified) + Cn1nnc2c(C(N)=O)ncn2c1=O
Response: Y

Request: What do you have for Cc1cc(C)c(CNC(=O)c2cc(-c3ccc(CN4CCOCC4)cc3)cc3c2cnn3C2CCCC2)c(=O)[nH]1 + Cn1nnc2c(C(N)=O)ncn2c1=O ?
Response: Y

Request: What do you have for [2H]c1nc(C)nc([2H])c1-c1cc(NC[C@@H](C)c2cccc3c(C(=O)NC)ccnc23)ncn1 + Cn1nnc2c(C(N)=O)ncn2c1=O ?
Response: N

Request: What do you have for COc1ccc([C@@H](O)c2cc(-c3ncnc4cc(N5CCOCC5)ccc34)c(F)cc2Cl)nn1 + Cn1nnc2c(C(N)=O)ncn2c1=O ?
Response: Y

Request: What do you have for CC1COCCN1c1cc(-c2ccnn2C)c2ccnc(-c3ccn[nH]3)c2n1 (stereo unspecified) + Cn1nnc2c(C(N)=O)ncn2c1=O ?
Response: Y

Request: What do you have for CC(C)n1c(=O)n(C)c2cnc3cc(F)c(-c4ccc(OCCCN5CCCCC5)nc4)cc3c21 + Cn1nnc2c(C(N)=O)ncn2c1=O ?
Response: N

----------
# Test system: G-401 tumor spheroids, viability % test/control
# Test Protocol: Anticancer human tumor G-401 cell line growth inhibition;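 also: spheroids exposed to compound for 7 days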
# Run Conditions: second compound 0.00949 µM; first compound 1 µM; hits give low values; spheroids with HUVEC and MSC
# Experimental: Multicellular complex tumor spheroid response to DNA repair inhibitors in combination with DNA-damaging drugs This study explores the anticancer activities of DNA-damaging drugs and inhibitors of DNA damage repair, both as single agents and in combinations. […] Twenty-six patient-derived or established malignant cell lines were evaluated representing sarcoma, melanoma, small cell lung cancer (SCLC), non-small cell lung cancer (NSCLC), as well as bladder, ovarian and pancreatic cancers. […]
Flag rule - viability, T/C less than 20% flags MET; the remaining entries get NOT MET.

Request: Does the reported viability, T/C of the following compound sit strictly below 20%? COc1cc(C)[nH]c(=O)c1CN1CCc2c(Cl)cc(C(OC)C3COC3)c(Cl)c2C1=O (stereo unspecified) + CC[C@@]1(O)C(=O)OCc2c1cc1n(c2=O)Cc2cc3c(CN(C)C)c(O)ccc3nc2-1
Response: NOT MET

Request: What do you have for Cc1cc(C)c(CNC(=O)c2cc(-c3ccc(CN4CCOCC4)cc3)cc3c2cnn3C2CCCC2)c(=O)[nH]1 + CC[C@@]1(O)C(=O)OCc2c1cc1n(c2=O)Cc2cc3c(CN(C)C)c(O)ccc3nc2-1 ?
Response: NOT MET

Request: What do you have for COc1ccc([C@@H](O)c2cc(-c3ncnc4cc(N5CCOCC5)ccc34)c(F)cc2Cl)nn1 + CC[C@@]1(O)C(=O)OCc2c1cc1n(c2=O)Cc2cc3c(CN(C)C)c(O)ccc3nc2-1 ?
Response: NOT MET

Request: What do you have for [2H]c1nc(C)nc([2H])c1-c1cc(NC[C@@H](C)c2cccc3c(C(=O)NC)ccnc23)ncn1 + CC[C@@]1(O)C(=O)OCc2c1cc1n(c2=O)Cc2cc3c(CN(C)C)c(O)ccc3nc2-1 ?
Response: NOT MET

Request: What do you have for CC1COCCN1c1cc(-c2ccnn2C)c2ccnc(-c3ccn[nH]3)c2n1 (stereo unspecified) + CC[C@@]1(O)C(=O)OCc2c1cc1n(c2=O)Cc2cc3c(CN(C)C)c(O)ccc3nc2-1 ?
Response: MET

Request: What do you have for CC(C)n1c(=O)n(C)c2cnc3cc(F)c(-c4ccc(OCCCN5CCCCC5)nc4)cc3c21 + CC[C@@]1(O)C(=O)OCc2c1cc1n(c2=O)Cc2cc3c(CN(C)C)c(O)ccc3nc2-1 ?
Response: MET
